- experimental.target: Tyrosine-protein kinase ITK/TSK (Mus musculus)
- Sequence (Q03526 whole entry): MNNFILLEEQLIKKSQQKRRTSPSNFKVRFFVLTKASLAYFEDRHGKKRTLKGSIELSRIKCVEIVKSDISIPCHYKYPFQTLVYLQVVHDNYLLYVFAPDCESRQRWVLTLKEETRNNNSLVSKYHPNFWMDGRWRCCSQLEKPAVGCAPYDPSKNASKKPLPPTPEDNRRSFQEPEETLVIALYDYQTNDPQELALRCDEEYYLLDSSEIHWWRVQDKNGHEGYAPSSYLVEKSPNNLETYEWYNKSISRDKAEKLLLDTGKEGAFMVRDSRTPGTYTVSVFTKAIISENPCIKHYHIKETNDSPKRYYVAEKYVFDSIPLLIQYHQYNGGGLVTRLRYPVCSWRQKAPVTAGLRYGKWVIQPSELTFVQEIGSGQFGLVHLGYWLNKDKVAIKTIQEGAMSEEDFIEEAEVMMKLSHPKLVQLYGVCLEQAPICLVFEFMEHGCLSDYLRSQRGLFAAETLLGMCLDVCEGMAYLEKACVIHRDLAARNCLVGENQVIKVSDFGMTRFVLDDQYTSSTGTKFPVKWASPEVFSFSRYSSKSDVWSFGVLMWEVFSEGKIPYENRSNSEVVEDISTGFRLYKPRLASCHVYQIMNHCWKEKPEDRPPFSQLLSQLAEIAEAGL
- test: Inhibition of Itk in mouse EL4 cells assessed as inhibition of IL-2 secretion incubated for 16 hrs in presence of anti-CD3 antibody G19-4 by ELISA analysis
pIC50: −log10 of the molar value.

# compound, pIC50
data = [
    ("CC(=O)N1CCN(C(=O)c2cc(CSc3cnc(NC(=O)c4ccc(CNC(C)C(C)(C)C)cc4)s3)cc(C)c2C)CC1 (stereo unspecified)", 6.60),
]

====

- experimental.target: Cyclin-dependent kinase 2 (Homo sapiens, UniProt P24941)
pIC50: −log10 of the molar value.
measured.quantity: pIC50

# smiles.structure, measured.quantity, number
data = [
    ("CC(=O)N1CCN(C(=O)c2cccc(CSc3cnc(NC(=O)c4ccc(N(C)C)cc4)s3)c2)CC1", "pIC50", 4.57),
]

====

- experimental.target: UniProt:P49841
- Sequence (P49841 whole entry): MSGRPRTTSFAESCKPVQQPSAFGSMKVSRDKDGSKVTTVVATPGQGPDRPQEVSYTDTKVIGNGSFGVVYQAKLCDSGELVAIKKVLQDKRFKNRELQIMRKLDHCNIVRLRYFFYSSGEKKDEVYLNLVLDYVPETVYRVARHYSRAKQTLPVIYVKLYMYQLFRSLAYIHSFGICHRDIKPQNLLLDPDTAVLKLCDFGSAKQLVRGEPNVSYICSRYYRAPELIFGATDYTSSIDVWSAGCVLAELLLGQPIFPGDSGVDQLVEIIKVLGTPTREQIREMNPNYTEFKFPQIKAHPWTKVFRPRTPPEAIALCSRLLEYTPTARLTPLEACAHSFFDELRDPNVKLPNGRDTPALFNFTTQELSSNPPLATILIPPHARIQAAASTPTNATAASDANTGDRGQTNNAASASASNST
pIC50: −log10 of the molar value.

# compound, experimental.target, pIC50
measured = [
    ("COc1cc(C)c(Sc2cnc(NC(=O)c3ccc(CNC(C)C(C)(C)C)cc3)s2)cc1C(=O)N1CCN(C(C)=O)CC1 (stereo unspecified)", "UniProt:P49841", 4.44),
]

====

- experimental.target: Tyrosine-protein kinase Lck (Homo sapiens, UniProt P06239)
- Sequence (P06239 whole entry): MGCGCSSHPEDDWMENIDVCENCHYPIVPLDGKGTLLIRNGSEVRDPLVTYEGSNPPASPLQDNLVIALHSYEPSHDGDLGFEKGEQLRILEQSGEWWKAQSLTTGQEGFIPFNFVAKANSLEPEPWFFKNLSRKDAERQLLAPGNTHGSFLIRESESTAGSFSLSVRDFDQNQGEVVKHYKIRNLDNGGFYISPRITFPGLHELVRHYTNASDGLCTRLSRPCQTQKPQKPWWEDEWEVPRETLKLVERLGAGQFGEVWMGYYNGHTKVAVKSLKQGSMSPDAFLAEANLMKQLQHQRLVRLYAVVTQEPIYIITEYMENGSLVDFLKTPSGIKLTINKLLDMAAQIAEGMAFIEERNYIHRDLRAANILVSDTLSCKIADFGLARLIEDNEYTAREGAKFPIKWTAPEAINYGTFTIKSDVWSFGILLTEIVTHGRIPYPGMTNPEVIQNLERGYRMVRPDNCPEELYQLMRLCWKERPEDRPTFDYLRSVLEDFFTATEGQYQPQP

# molecule, IC50 (nM)
records = [
    ("COc1cc(C)c(Sc2cnc(NC(=O)c3ccc(CNC(C)C(C)(C)C)cc3)s2)cc1C(=O)N1CCN(C(C)=O)CC1 (stereo unspecified)", 2400),
]

====

- experimental.target: Tyrosine-protein kinase Tec (Homo sapiens, UniProt P42680)
- Sequence (P42680 whole entry): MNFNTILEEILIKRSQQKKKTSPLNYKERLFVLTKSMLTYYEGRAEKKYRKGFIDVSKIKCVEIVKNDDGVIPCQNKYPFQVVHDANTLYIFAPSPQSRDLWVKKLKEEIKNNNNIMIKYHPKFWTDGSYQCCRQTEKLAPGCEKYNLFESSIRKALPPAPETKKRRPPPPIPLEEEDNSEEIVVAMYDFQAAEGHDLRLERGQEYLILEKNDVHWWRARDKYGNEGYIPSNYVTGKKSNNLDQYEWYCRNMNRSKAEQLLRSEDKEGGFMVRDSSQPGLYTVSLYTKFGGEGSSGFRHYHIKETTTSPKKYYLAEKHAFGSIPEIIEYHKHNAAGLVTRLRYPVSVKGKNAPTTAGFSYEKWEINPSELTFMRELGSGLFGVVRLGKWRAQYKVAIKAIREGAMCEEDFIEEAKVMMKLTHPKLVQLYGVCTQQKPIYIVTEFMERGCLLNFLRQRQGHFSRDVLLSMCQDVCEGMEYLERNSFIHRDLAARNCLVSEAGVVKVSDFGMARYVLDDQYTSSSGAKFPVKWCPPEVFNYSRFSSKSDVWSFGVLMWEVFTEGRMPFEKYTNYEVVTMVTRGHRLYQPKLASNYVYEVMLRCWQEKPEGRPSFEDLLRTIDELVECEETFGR

# compound, IC50 (µM)
measured = [
    ("COc1cc(C)c(Sc2cnc(NC(=O)c3ccc(CNC(C)C(C)(C)C)cc3)s2)cc1C(=O)N1CCN(C(C)=O)CC1 (stereo unspecified)", 17),
]
